Biological target: T1, human RGMc (human, UniProt Q6ZVN8 36-400, limits assumed)
T1 construct: also called hRGMc
T1 sequence: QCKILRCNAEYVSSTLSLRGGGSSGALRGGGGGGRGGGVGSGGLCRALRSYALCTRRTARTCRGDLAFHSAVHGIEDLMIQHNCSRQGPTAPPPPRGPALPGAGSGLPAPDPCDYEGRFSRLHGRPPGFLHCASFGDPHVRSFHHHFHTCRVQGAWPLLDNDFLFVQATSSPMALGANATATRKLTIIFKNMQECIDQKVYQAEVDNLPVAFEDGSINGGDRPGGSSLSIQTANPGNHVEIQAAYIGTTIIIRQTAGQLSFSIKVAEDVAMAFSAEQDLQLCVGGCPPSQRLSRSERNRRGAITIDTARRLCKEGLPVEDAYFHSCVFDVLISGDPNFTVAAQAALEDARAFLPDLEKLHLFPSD
Assay: BIAcore; Ab captured via anti-hIgG Fc on CM5 chip, antigen injected; 1:1 Langmuir fit
metric.name: Kd (nM)
Unit nM implied. Number only.

- binder: "humanized antibody 5F9.23 (antibody, V domains shown, also called h5F9.23; H5F9.23) VH: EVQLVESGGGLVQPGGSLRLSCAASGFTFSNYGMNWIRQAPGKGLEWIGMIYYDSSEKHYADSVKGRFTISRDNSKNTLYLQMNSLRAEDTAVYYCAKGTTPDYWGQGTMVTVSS VL: DVVLTQSPLSLPVTLGQPASISCRSSQSLEYSDGYTFLEWFQQRPGQSPRLLIYEVSNRFSGVPDRFSGSGSGTDFTLKISRVEAEDVGVYYCFQATHDPLTFGQGTKLEIKR"
  readout.units: "nM"
  Kd: 29
- binder: "RGMA-h5F9pJP297/pJP298 hIgG1/K mut (antibody, V domains shown, Tested as IgG; also called h5F9.AM8; H5F9AM.8) VH: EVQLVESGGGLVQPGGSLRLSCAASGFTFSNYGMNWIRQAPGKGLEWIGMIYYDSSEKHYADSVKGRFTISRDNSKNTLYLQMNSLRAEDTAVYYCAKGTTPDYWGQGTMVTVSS VL: DVVLTQSPLSLPVTLGQPASISCRSSQSLEESDGYTFLHWFQQRPGQSPRLLIYEVSTRFSGVPDRFSGSGSGTDFTLKISRVEAEDVGVYYCFQATHDPLTFGQGTKLEIK"
  readout.units: "nM"
  Kd: 0.105
- binder: "RGMA-h5F9pJP297/pJP299 hIgG1/K mut (antibody, V domains shown, Tested as IgG; also called h5F9.AM9; H5F9AM.9) VH: EVQLVESGGGVVQPGRSLRLSCAASGFTFSNYGMNWVRQAPGKGLEWVAMIYYDSSEKHYADSVKGRFTISRDNSKNTLYLQMNSLRAEDTAVYYCARGTTPDYWGQGTMVTVSS VL: DVVLTQSPLSLPVTLGQPASISCRSSQSLADSDGDTFLHWFQQRPGQSPRLLIYAVSHRFSGVPDRFSGSGSGTDFTLKISRVEAEDVGVYYCFQATHDPVTFGQGTKLEIK"
  readout.units: "nM"
  Kd: 0.71
- binder: "RGMA-h5F9pJP302/pJP303 hIgG1/K mut (antibody, V domains shown, Tested as IgG; also called h5F9.AM11; H5F9AM.11) VH: EVQLVESGGGLVQPGGSLRLSCAASGFTFSNYGMNWVRQAPGKGLEWVSMIYYDSSEKHYADSVKGRFTISRDNSKNTLYLQMNSLRAEDTAVYYCAKGTTPDYWGQGTMVTVSS VL: DVVLTQSPLSLPVTLGQPASISCRSSQSLEDSDGGTFLEWFQQRPGQSPRLLIYDVSSRFSGVPDRFSGSGSGTDFTLKISRVEAEDVGVYYCFQATHDPLSFGQGTKLEIK"
  readout.units: "nM"
  Kd: 0.285

Lab note: next binder to report on.
I have this binder here, RGMA-h5F9Vh7a/pJP291 hIgG1/K mut (antibody, V domains shown, Tested as IgG; also called h5F9.AM4; H5F9AM.4) VH: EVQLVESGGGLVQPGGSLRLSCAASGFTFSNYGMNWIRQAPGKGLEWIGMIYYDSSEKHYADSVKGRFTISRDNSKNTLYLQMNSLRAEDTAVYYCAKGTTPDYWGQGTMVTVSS VL: DVVLTQSPLSLPVTLGQPASISCRSSQSLESSDGDTFLEWFQQRPGQSPRLLIYDVSTRFSGVPDRFSGSGSGTDFTLKISRVEAEDVGVYYCFQVTHDPVTFGQGTKLEIK , and I need its recorded Kd.
0.13
